assay: refractive index (Na D-line) (dimensionless); settings: 298.15 K; 101.33 kPa; Liquid; Standard Abbe refractometry
measure name: refractive index

CC(C)O = 1.3754
CC(C)OC(C)C = 1.3652
O = 1.3332
CCCO = 1.3836
CCCOCCC = 1.3784

====

conditions: Liquid; Closed cell (Static) method
measure name: Normal boiling temperature (°C)

CC(C)OC(C)C = 68.2
CCCO = 96.60
O = 100.00
CC(C)O = 82.10
CCCOCCC = 90.01
